Target: PTP1B (Homo sapiens, UniProt P18031)
Construct: recombinant PTP1B protein
Sequence (P18031 whole entry): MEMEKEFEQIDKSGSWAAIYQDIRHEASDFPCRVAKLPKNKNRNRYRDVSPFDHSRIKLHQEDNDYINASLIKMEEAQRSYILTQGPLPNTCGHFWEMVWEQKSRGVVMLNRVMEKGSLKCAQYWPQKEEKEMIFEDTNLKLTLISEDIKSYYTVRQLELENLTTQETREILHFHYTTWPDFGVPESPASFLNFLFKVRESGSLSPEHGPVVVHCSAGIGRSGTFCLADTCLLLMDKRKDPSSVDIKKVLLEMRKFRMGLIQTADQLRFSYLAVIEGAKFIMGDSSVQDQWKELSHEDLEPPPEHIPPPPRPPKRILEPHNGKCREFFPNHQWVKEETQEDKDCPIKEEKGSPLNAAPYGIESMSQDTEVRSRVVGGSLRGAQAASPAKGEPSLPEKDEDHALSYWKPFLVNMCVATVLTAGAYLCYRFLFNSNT
Experiment: p-nitrophenyl phosphate phosphatase assay with recombinant PTP1B; supported by CETSA in HCT116 lysates (ΔTm -4.[…] °C)
OBSERVATION TYPE: IC50 (µM)
Only the number, expressed in µM, is required.

Request: Give IC50 for this entry on PTP1B (Homo sapiens, UniProt P18031): CCCCCC[n+]1ccn2[c]1[Pt-2]1([c]3ccccc3-c3cccc[n+]31)[c]1n(cc[n+]1CCCCCC)CCC2 [Pt-ER, PlatinER]
Result: 20.6

Sourced from paper PMC12833861
